- Tested Target: T1, cynomolgus monkey BCMA (cynomolgus monkey, UniProt A0A2K5UD97 1-53)
- T1 construct: Soluble analyte in SPR; construct not described; also called cyBCMA; Cyno BCMA
- T1 sequence (A0A2K5UD97 entry or part of it): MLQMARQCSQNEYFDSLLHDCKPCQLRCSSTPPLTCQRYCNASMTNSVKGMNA
- Assay Comment: SPR, IgG immobilised, 37 C
Assay Metric: Kd (nM)
Give bare numbers, in nM.

Before answering, review these 2 worked examples.
Binder	Assay Metric	Value Measured
L3.PY/L1.AH/H3.AE (antibody, V domains shown, IgG) VH: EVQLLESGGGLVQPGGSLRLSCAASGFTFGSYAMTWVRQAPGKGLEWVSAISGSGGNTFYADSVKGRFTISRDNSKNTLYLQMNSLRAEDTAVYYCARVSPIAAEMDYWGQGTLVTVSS VL: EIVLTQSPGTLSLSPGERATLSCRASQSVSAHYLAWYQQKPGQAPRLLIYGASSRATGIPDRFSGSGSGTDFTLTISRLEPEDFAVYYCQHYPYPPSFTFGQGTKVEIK	Kd	1.58
L3.PY/L1.AH/P6E01 (antibody, V domains shown, IgG) VH: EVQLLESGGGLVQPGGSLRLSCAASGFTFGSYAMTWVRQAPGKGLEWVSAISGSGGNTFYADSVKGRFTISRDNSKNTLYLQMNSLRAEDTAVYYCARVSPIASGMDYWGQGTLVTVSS VL: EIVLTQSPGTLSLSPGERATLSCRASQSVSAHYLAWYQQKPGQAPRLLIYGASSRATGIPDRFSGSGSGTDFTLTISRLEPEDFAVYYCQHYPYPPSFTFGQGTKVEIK	Kd	2.65

Alright, here's another binder for you.
# Kd lookup, item L3.PY/L1.AH/H2.DY (antibody, V domains shown, IgG) VH: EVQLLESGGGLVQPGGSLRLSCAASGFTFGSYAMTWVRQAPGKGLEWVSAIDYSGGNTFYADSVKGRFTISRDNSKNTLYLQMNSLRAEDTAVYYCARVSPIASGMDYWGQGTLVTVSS VL: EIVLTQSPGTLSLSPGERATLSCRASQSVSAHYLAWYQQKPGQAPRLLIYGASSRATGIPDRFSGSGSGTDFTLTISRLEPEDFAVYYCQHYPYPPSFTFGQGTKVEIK
1.95
